test system: ISC-enriched organoids; test: Primary screen, 384-well 2.5-D organoid differentiation (ENR+CD, 6 days): basal lysozyme secretion (LYZ.NS); format: cell-based, murine; settings: strictly standardized mean difference; primary screen; 3rd of the 4 dose lines of the treatment (dose not given)
Please go through the items and note down their SSMD.LYZ.NS.
Answers are plain numbers.

molecule	target_or_test_system	measured_attribute	endpoint_result
Cc1noc(-c2ccc(CSCCC(=O)O)cc2)c1NC(=O)OC(C)c1ccccc1Cl (centres unmarked)	ISC-enriched organoids	SSMD.LYZ.NS	−0.072
CC#CCn1c(N2CCC[C@@H](N)C2)nc2c1c(=O)n(Cc1nc(C)c3ccccc3n1)c(=O)n2C	ISC-enriched organoids	SSMD.LYZ.NS	0.118
O=C(O)CCc1ccc(NCc2cccc(Oc3ccccc3)c2)cc1	ISC-enriched organoids	SSMD.LYZ.NS	−0.064

Quick batch: SSMD.LYZ.NS for everything below.
1. CCn1c(=O)c2c(nc(/C=C/c3ccc(OC)c(OC)c3)n2C)n(CC)c1=O
2. CCN(CC)CC(=O)Nc1c(C)cccc1C

(A)
["−0.012", 0.008]

----------
Please go through the items and note down their Z.CTG.
tested on: ISC-enriched organoids; experiment: Primary screen, 384-well 2.5-D organoid differentiation (ENR+CD, 6 days, Target Selective Inhibitor Library, vs whole-plate median): ATP (CellTiter-Glo 3D, CTG); details: Dose 10.00 uM; primary screen, standard z score
Numbers only.

Examples with answers:
compound	target_or_test_system	Z.CTG
COc1cc(-c2ncn(/C=C\C(=O)OC(C)C)n2)cc(C(F)(F)F)c1	ISC-enriched organoids	−2.041
Nc1nc(OCc2cc(Br)cs2)c2[nH]cnc2n1	ISC-enriched organoids	−0.192
C=CC(=O)N1CCC[C@@H](n2nc(-c3ccc(Oc4ccccc4)cc3)c3c(N)ncnc32)C1	ISC-enriched organoids	−2.224
Cc1cc(Nc2ncc(Cl)c(Nc3ccccc3S(=O)(=O)C(C)C)n2)c(OC(C)C)cc1C1CCNCC1	ISC-enriched organoids	−3.087

Quick batch: Z.CTG for everything below.
1. Cc1ccc(NCCCc2ccccc2)c(N)c1
2. Cl.O=C(O)Cc1cccc(OCCCN(Cc2cccc(C(F)(F)F)c2Cl)CC(c2ccccc2)c2ccccc2)c1 [GW3965 HCl]
3. O=C(O)CNC(=O)c1c(O)c2ccccc2n(Cc2ccccc2)c1=O

(A)
1. 0.110
2. −0.186
3. 0.002

----------
system: ISC-enriched organoids; assay: Primary screen, 384-well 2.5-D organoid differentiation (ENR+CD, 6 days, Target Selective Inhibitor Library, vs whole-plate median): ATP (CellTiter-Glo 3D, CTG); conditions: Dose 0.40 uM; standard z score of FC
Structures can show the parent of a compound that is named as a salt.
Binning of Z.CTG into classes: low interval = under -0.2, middle interval = from -0.2 up to 0.2, high interval = 0.2 and over

compound	assigned_category
O=C(O)c1ccc(Nc2ncc3c(n2)-c2ccc(Cl)cc2C(c2c(F)cccc2F)=NC3)cc1	middle interval
O=c1cc(N2CCOCC2)oc2c1ccc1ccccc12	high interval
C=C[C@@]1(C)CC(=O)[C@]2(O)[C@@]3(C)[C@@H](O)CCC(C)(C)[C@@H]3[C@H](O)[C@H](OC(C)=O)[C@@]2(C)O1	low interval
COCCCC/C(=N\OCCN)c1ccc(C(F)(F)F)cc1 [Fluvoxamine maleate]	high interval
Cn1cc(C2=C(c3cn(C4CCN(Cc5ccccn5)CC4)c4ccccc34)C(=O)NC2=O)c2ccccc21	high interval
COc1ccc(CNCc2cccc3ccccc23)cc1.Cl [ML133 HCl]	low interval
S=C=Nc1cccc(NC(=S)NCCCCNC(=S)Nc2cccc(N=C=S)c2)c1	middle interval
O=c1[nH]c2ccc(Cl)cc2c(N[C@@H]2CN3CCC2CC3)c1-c1nc2ccccc2[nH]1	low interval
NC(=O)N1c2ccccc2CC(=O)c2ccccc21 [Oxcarbazepine]	low interval
Cc1ccc(-c2cc(C(F)(F)F)nn2-c2ccc(S(N)(=O)=O)cc2)cc1	low interval

(Q) Textbook exercise: identify the category of the compound given here, "O=C(NNc1ccccc1)c1ccncc1" , according to its measured value.
(A) low interval

(Q) Textbook exercise: identify the category of the compound given here, "CC(C)Oc1ccc(-c2cnc3c(-c4ccnc5ccccc45)cnn3c2)cc1" , according to its measured value.
(A) middle interval

(Q) Textbook exercise: identify the category of the compound given here, "FC(F)(F)c1ccc(/C=C/c2nc(COc3ccc(CCCCn4ccnn4)cc3)co2)cc1" , according to its measured value.
(A) low interval

(Q) Textbook exercise: identify the category of the compound given here, "C[C@H](CS)C(=O)N1CCC[C@H]1C(=O)O" , according to its measured value.
(A) high interval

(Q) Textbook exercise: identify the category of the compound given here, COc1ccc(C[C@@H](C)NC[C@H](O)c2ccc(O)c(NC=O)c2)cc1.COc1ccc(C[C@@H](C)NC[C@H](O)c2ccc(O)c(NC=O)c2)cc1.O=C(O)/C=C/C(=O)O [Formoterol Hemifumarate] , according to its measured value.
(A) high interval

(Q) Textbook exercise: identify the category of the compound given here, "NCC(=O)Nc1ccc(-n2nc(C(F)(F)F)cc2-c2ccc3c(ccc4ccccc43)c2)cc1" , according to its measured value.
(A) high interval

(Q) Textbook exercise: identify the category of the compound given here, "CCCC(=O)Nc1cccc(NC(=O)c2ccccc2Br)c1" , according to its measured value.
(A) middle interval

----------
Test system: ISC-enriched organoids
Experiment: Primary screen, 384-well 2.5-D organoid differentiation (ENR+CD, 6 days): carbachol-induced lysozyme secretion (LYZ.S)
Type: cell-based, murine
Settings: dose 0.08 uM (1st of 4 lines per treatment; dose not printed in this part)
Text: High-throughput screening.
Entry flag: YES if SSMD.LYZ.S_Rep (strictly standardized mean difference) reaches -0.3; NO if it does not.

Consider the following illustrative entries.
compound	assigned_category
O=C(O)C(Cc1ccccc1[N+](=O)[O-])=NNc1nc(-c2ccc(Cl)c(Cl)c2)cs1 (mixture of isomers)	YES
CN1CCc2cc3c(cc2[C@H]1[C@@H]1OC(=O)c2c1ccc1c2OCO1)OCO3 [(+)-Bicuculline]	YES
C=CCNC1=C2C[C@@H](C)C[C@H](OC)[C@H](O)[C@@H](C)/C=C(\C)[C@H](OC(N)=O)[C@@H](OC)/C=C\C=C(/C)C(=O)NC(=CC1=O)C2=O	NO

(Q) Does the compound "CC1(C)CCC(c2ccc(Cl)cc2)=C(CN2CCN(c3ccc(C(=O)NS(=O)(=O)c4ccc(N[C@H](CCN5CCOCC5)CSc5ccccc5)c(S(=O)(=O)C(F)(F)F)c4)cc3)CC2)C1" have recorded SSMD.LYZ.S_Rep (strictly standardized mean difference) that is -0.3 or more?
(A) YES

(Q) Does the compound "N#Cc1c(O)c2c(-c3ccc(-c4ccccc4O)cc3)csc2[nH]c1=O" have recorded SSMD.LYZ.S_Rep (strictly standardized mean difference) that is -0.3 or more?
(A) YES

----------
test system: ISC-enriched organoids; experiment: Primary screen, 384-well 2.5-D organoid differentiation (ENR+CD, 6 days, Target Selective Inhibitor Library, vs whole-plate median): ATP (CellTiter-Glo 3D, CTG); settings: Dose 2.00 uM; primary screen, vs plate median
Entry flag: 1 if Dose.FC.CTG (log 2 fold change) reaches 0.05; 0 if it does not.

Consider the following illustrative entries.
compound	assigned_category
Cn1cnc2c(F)c(Nc3ccc(Br)cc3Cl)c(C(=O)NOCCO)cc21	0
Cc1cn([C@H]2C=C[C@@H](CO)O2)c(=O)[nH]c1=O	1
CN1CCC(CNc2ccc3ncc(-c4cccc(OC(F)(F)F)c4)n3n2)CC1 [SGI-1776free base]	1
N#CSc1cc(SC#N)c(N)nc1N	0
Cc1ccc(S(=O)(=O)Cc2nc(-c3ccc(C(=O)NCc4cccnc4)cc3)oc2C)cc1	0

(Q) Does the compound "Cc1ccc(C(=O)N(CCCN)[C@@H](c2oc3cc(Cl)ccc3c(=O)c2Cc2ccccc2)C(C)C)cc1" have recorded Dose.FC.CTG (log 2 fold change) that is 0.05 or more?
(A) 0

(Q) Does the compound O=C(/C=C/c1ccccc1)NC(NC(=S)Nc1ccc(Cl)cc1)C(Cl)(Cl)Cl (stereo not drawn) have recorded Dose.FC.CTG (log 2 fold change) that is 0.05 or more?
(A) 1

(Q) Does the compound Cl.NC(=O)c1cnc(N[C@@H]2CCCC[C@@H]2N)nc1Nc1cccc(-n2nccn2)c1 [PRT062607 (P505-15, BIIB057) HCl] have recorded Dose.FC.CTG (log 2 fold change) that is 0.05 or more?
(A) 0

----------
system: ISC-enriched organoids; test: Primary screen, 384-well 2.5-D organoid differentiation (ENR+CD, 6 days): basal lysozyme secretion (LYZ.NS); format: cell-based, murine; conditions: Dose 0.08 uM; standard z score of FC
Each record is given MET if its reported Z.LYZ.NS is strictly below 0.3. Records at or above 0.3 are given NOT MET.

Consider the following illustrative entries.
compound	assigned_category
CN(c1ncccc1CNc1nc(Nc2ccc3c(c2)CC(=O)N3)ncc1C(F)(F)F)S(C)(=O)=O	MET
Cn1cc(C2=C(c3cn(C4CCN(Cc5ccccn5)CC4)c4ccccc34)C(=O)NC2=O)c2ccccc21	NOT MET
Nc1ncnc2c1c(-c1cccc(OCc3ccccc3)c1)cn2C1CC(CN2CCCC2)C1 (centres unmarked)	NOT MET

(Q) Problem: For the compound "CS(=O)(=O)N1CCN(Cc2cc3nc(-c4cccc5[nH]ncc45)nc(N4CCOCC4)c3s2)CC1" , is Z.LYZ.NS under 0.3?
(A) MET

(Q) Problem: For the compound CC(C)c1cc(-c2n[nH]c(=O)n2-c2ccc3c(ccn3C)c2)c(O)cc1O [Ganetespib (STA-9090)] , is Z.LYZ.NS under 0.3?
(A) MET

(Q) Problem: For the compound "CC(C)(C)n1nc(-c2ccc(Cl)cc2)c2c(N)ncnc21" , is Z.LYZ.NS under 0.3?
(A) MET

(Q) Problem: For the compound CC1C(=O)OC2C(O)C34C5CC(C(C)(C)C)C36C(OC(=O)C6O)OC4(C(=O)O5)C12O (centres unmarked) [Ginkgolide B] , is Z.LYZ.NS under 0.3?
(A) NOT MET

(Q) Problem: For the compound "CCc1c(C(=O)NCCc2ccc(N3CCCCC3)cc2)[nH]c2ccc(Cl)cc12" , is Z.LYZ.NS under 0.3?
(A) NOT MET

(Q) Problem: For the compound "Cc1[nH]c2ccccc2c1CCNCc1ccc(/C=C/C(=O)NO)cc1" , is Z.LYZ.NS under 0.3?
(A) MET

(Q) Problem: For the compound "CC(C)NC[C@@H](C(=O)N1CCN(c2ncnc3c2[C@H](C)C[C@H]3O)CC1)c1ccc(Cl)cc1" , is Z.LYZ.NS under 0.3?
(A) NOT MET

(Q) Problem: For the compound "Nc1ncnc2n[nH]c(Nc3ccc(F)cc3)c12" , is Z.LYZ.NS under 0.3?
(A) NOT MET

(Q) Problem: For the compound "O=c1cc(N2CCOCC2)oc2c1ccc1ccccc12" , is Z.LYZ.NS under 0.3?
(A) MET

(Q) Problem: For the compound "CC(C)(F)C[C@H](N[C@@H](c1ccc(-c2ccc(S(C)(=O)=O)cc2)cc1)C(F)(F)F)C(=O)NC1(C#N)CC1" , is Z.LYZ.NS under 0.3?
(A) NOT MET

(Q) Problem: For the compound "Cc1[nH]c2ccccc2c1CCNC(=O)c1cccs1" , is Z.LYZ.NS under 0.3?
(A) NOT MET

(Q) Problem: For the compound "CC(=O)c1cc([N+](=O)[O-])c(Sc2ccc(F)cc2F)s1" , is Z.LYZ.NS under 0.3?
(A) NOT MET

(Q) Problem: For the compound CCCCCCCCc1ccc(CCC(N)(CO)CO)cc1.Cl [Fingolimod (FTY720) HCl] , is Z.LYZ.NS under 0.3?
(A) MET

(Q) Problem: For the compound "CC1(COc2ccc3c(c2)ncn3-c2ccc3cccc(N4CCC(N)CC4)c3n2)COC1" , is Z.LYZ.NS under 0.3?
(A) NOT MET
